System: 8226Dox40
Experiment: cells
Assay type: cell-based, human
Conditions: 8226Dox40, doxorubicin resistance; 72 hours incubation; read-out: IC50
Counter-ions that a name gives are not always drawn.
I'd appreciate it if you could supply pIC50 values for the items below.
Give bare numbers, as −log10 of the molar value.

// solved cases for pIC50 follow
CCOC(=O)[C@H](Cc1ccc(F)cc1)NC(=O)[C@H](Cc1ccc(N(CCCl)CCCl)cc1)NC(=O)[C@@H]1CCCN1.Cl [Example J3, hydrochloride]    5.25
CCOC(=O)[C@H](Cc1ccc(F)cc1)NC(=O)[C@H](Cc1cccc(N(CCCl)CCCl)c1)NC(=O)[C@@H]1CCCN1 [Example P2, hydrochloride, reference compound]    5.27
CCOC(=O)[C@H](Cc1ccc(F)cc1)NC(=O)[C@@H](N)Cc1ccc(N(CCCl)CCCl)cc1.Cl [Example J1, hydrochloride]    5.75

Take each entry in turn and give its pIC50.
1. CC(C)OC(=O)[C@H](Cc1ccc(F)cc1)NC(=O)[C@@H](N)Cc1ccc(N(CCCl)CCCl)cc1.Cl [JV28, hydrochloride]
2. O=c1[nH]cc(F)c(=O)[nH]1 [Example 5-FU, 5-FU, reference compound]

1. 6.05
2. 4.22

Take each entry in turn and give its pIC50.
1. CCOC(=O)[C@H](Cc1ccc(N(CCCl)CCCl)cc1)NC(=O)[C@@H](N)Cc1ccc(N(CCCl)CCCl)cc1 [JV27, hydrochloride]
2. CCOC(=O)[C@H](Cc1ccc([N+](=O)[O-])cc1)NC(=O)[C@@H](N)Cc1ccc(N(CCCl)CCCl)cc1 [JV26, hydrochloride]

[5.80, 5.76]

Take each entry in turn and give its pIC50.
1. CCOC(=O)[C@H](Cc1ccc(N)cc1)NC(=O)[C@@H](N)Cc1ccc(N(CCCl)CCCl)cc1 [JV29, hydrochloride]
2. CCOC(=O)[C@H](Cc1ccc(OC)cc1)NC(=O)[C@@H](N)Cc1ccc(N(CCCl)CCCl)cc1 [JV25, hydrochloride]

1. 5.70
2. 5.92

Source of measurements: patent EP1290011B1
